Each record here notes measured Population Membrane Permeable-Phenotype (%).
# System: HEK-293T
# PROTOCOL_TEXT: Multiplex assay against HEK293T
# Type: toxicity, cell-based
# RUN_PARAMETERS: human, 48 h, 1 µM, compound concentration 1 uM, replicate 1
MEASURE_NAME: Population Membrane Permeable-Phenotype (%)

>>> print(df.to_string())
                                chem_smiles  readout_value
0  CC(F)(F)CN1CCOc2c(nn(-c3ccccc3Cl)c2-c2ccc(Cl)cc2)C1=O              1
1         O=c1nc2[nH]c3ccccc3nc-2c(=O)[nH]1              1
2  O=c1ccc2ccc(OCCCCN3CCN(c4cccc5sccc45)CC3)cc2[nH]1              0
3  Cc1nn(C)c2nc(NNC(=O)Nc3cc(Cl)nc(Cl)c3)cc(C(C)C)c12              1
4  Cc1cc(O)c(-c2ccc([C@@H](C)CN(C)C)cc2)c2c1[nH]c(=O)c1sccc12              0

---

# Tested on: HEK-293T
# PROTOCOL_TEXT: Multiplex assay against HEK293T
# Format: toxicity, cell-based
# RUN_PARAMETERS: human, 12 h, 1 µM, compound concentration 1 uM, replicate 1
MEASURE_NAME: Population Hoechst High Intensity Objects (%)

COMPOUND	READOUT_VALUE
CN1CCC(C(=O)c2cccc(NC(=O)c3c(F)cc(F)cc3F)n2)CC1	8
COCCn1c(C)c(C)s/c1=N\C(=O)C1C(C)(C)C1(C)C	6
COCCCN1CCC(NC(=O)c2cc(Cl)c(N)c3c2OCC3)CC1 [PRUCALOPRIDE]	8
Nc1nc(CC(=O)Nc2ccc(CCNC[C@H](O)c3ccccc3)cc2)cs1 [MIRABEGRON]	5
Cc1nn(C)c2nc(NNC(=O)Nc3cc(Cl)nc(Cl)c3)cc(C(C)C)c12	5
S=C(NCCCc1c[nH]cn1)NCCCN(Cc1ccc(Cl)c(Cl)c1)c1ccc(Br)cn1	17
COc1cc(OC2CCN(C(C)=O)CC2)ccc1C(=O)N1CCC(N2C(=O)OCc3ccccc32)CC1	7
O=C(NCCNCC(O)COc1ccc(O)cc1)N1CCOCC1.O=C(NCCNCC(O)COc1ccc(O)cc1)N1CCOCC1.O=C(O)/C=C/C(=O)O (stereo not drawn) [XAMOTEROL FUMARATE]	4
COC(c1ccccc1)(c1ccccc1)[C@H](Oc1nc(C)cc(C)n1)C(=O)O [AMBRISENTAN]	6
O=C(Nc1cc(-c2ccccc2)nn1-c1ccccc1F)c1ccc([N+](=O)[O-])cc1	9
CSc1nc(NC2CCCC2)c([N+](=O)[O-])c(NC2CCCC2)n1 [GS-39783]	8
Cc1cc(O)c(-c2ccc([C@@H](C)CN(C)C)cc2)c2c1[nH]c(=O)c1sccc12	27
CC(C)(C)c1ccc(CSc2cnn(C(C)(C)C)c(=O)c2Cl)cc1 [PYRIDABEN]	12
CN(C)C/C=C/C(=O)Nc1ccc(C(=O)N2CCCC(Nc3ncc(Cl)c(-c4c[nH]c5ccccc45)n3)C2)cc1 (stereo not drawn)	30
CC(C)C[C@H](CO)Nc1nc(S[C@@H](C)c2ccccc2)nc2nc(N)sc12 [AZD-8797]	4
O=c1nc2[nH]c3ccccc3nc-2c(=O)[nH]1 [ALLOXAZINE]	8
C=CCN1C[C@H](C(=O)N(CCCN(C)C)C(=O)NCC)C[C@@H]2c3cccc4[nH]cc(c34)C[C@H]21 [CABERGOLINE]	8
CCn1c(-c2nc3cc(C(=O)N4CCCC(N)C4)ccc3n2C)cc2ccccc21.Cl (stereo not drawn)	7

---

# Tested on: U2OS
# PROTOCOL_TEXT: Multiplex assay against U2OS
# Format: toxicity, cell-based
# RUN_PARAMETERS: human, 12 h, 10 µM, compound concentration 10 uM, replicate 2

COMPOUND	Population Normal (%)
Nc1nc(-c2ccco2)c2cnn(Cc3ccccc3F)c2n1	99
COC(c1ccccc1)(c1ccccc1)[C@H](Oc1nc(C)cc(C)n1)C(=O)O	99
COc1ccc2c(c1OCc1ccccc1)C[C@@H](C(=O)O)N(C(=O)C(c1ccccc1)c1ccccc1)C2	99
Cl.Cl.OCCOCCN1CCN(C(c2ccccc2)c2ccc(Cl)cc2)CC1 (configuration not stated) [HYDROXYZINE HYDROCHLORIDE]	97
CSc1nc(NC2CCCC2)c([N+](=O)[O-])c(NC2CCCC2)n1	98
Cc1sc2c(c1C)C(c1ccc(Cl)cc1)=N[C@H](CC(=O)OC(C)(C)C)c1nnc(C)n1-2	100
CN1C[C@H](C(=O)N[C@]2(C)O[C@@]3(O)[C@@H]4CCCN4C(=O)[C@H](Cc4ccccc4)N3C2=O)C[C@@H]2c3cccc4[nH]cc(c34)C[C@H]21.CS(=O)(=O)O [DIHYDROERGOTAMINE MESYLATE]	98
CN(C)C/C=C/C(=O)Nc1ccc(C(=O)N2CCCC(Nc3ncc(Cl)c(-c4c[nH]c5ccccc45)n3)C2)cc1 (configuration not stated)	97
N[C@](CC1c2ccccc2Oc2ccccc21)(C(=O)O)[C@H]1C[C@@H]1C(=O)O	100
Cn1cc(C(=O)OCC2CCN(CCNS(C)(=O)=O)CC2)c2ccccc21	98
COCCn1c(C)c(C)s/c1=N\C(=O)C1C(C)(C)C1(C)C	100
CC(C)(C)c1ccc(CSc2cnn(C(C)(C)C)c(=O)c2Cl)cc1	100
COc1cc(OC2CCN(C(C)=O)CC2)ccc1C(=O)N1CCC(N2C(=O)OCc3ccccc32)CC1	98
O=c1ccc2ccc(OCCCCN3CCN(c4cccc5sccc45)CC3)cc2[nH]1	90
C[C@H](NC(=O)CNC(=O)c1cccc(Cl)c1)c1ccccc1	100
O=C(NCCNCC(O)COc1ccc(O)cc1)N1CCOCC1.O=C(NCCNCC(O)COc1ccc(O)cc1)N1CCOCC1.O=C(O)/C=C/C(=O)O (configuration not stated) [XAMOTEROL FUMARATE]	95
CC(C)(O)C(=O)N1CCN(c2ccc(C(F)(F)F)c(C3=C(c4c[nH]c5ccccc45)C(=O)NC3=O)c2)CC1	98

---

# System: U2OS
# PROTOCOL_TEXT: Multiplex assay against U2OS
# Type: toxicity, cell-based
# RUN_PARAMETERS: human, 24 h, 10 µM, compound concentration 10 uM, replicate 2
Each record here notes measured Population Pyknosed Nuclei (%).
MEASURE_NAME: Population Pyknosed Nuclei (%)

COMPOUND	READOUT_VALUE
CN1CCN(c2ccc(Nc3c4ccccc4nc4ccccc34)cc2)CC1.Cl.Cl.O	7%
CCC(=O)OCC(=O)[C@@]1(OC(=O)CC)[C@@H](C)C[C@H]2[C@@H]3CCC4=CC(=O)C=C[C@]4(C)[C@@]3(Cl)[C@@H](O)C[C@@]21C [BECLOMETHASONE DIPROPIONATE]	17%
CCn1c(-c2nc3cc(C(=O)N4CCCC(N)C4)ccc3n2C)cc2ccccc21.Cl (centres undefined)	16%
Cn1cc(C(=O)OCC2CCN(CCNS(C)(=O)=O)CC2)c2ccccc21	9%

---

# Tested on: HEK-293T
# PROTOCOL_TEXT: Multiplex assay against HEK293T
# Type: toxicity, cell-based
# RUN_PARAMETERS: human, 48 h, 1 µM, compound concentration 1 uM, replicate 2
Non-standard residues stand in square brackets, D forms with d. Residues, ends and D or L forms follow the SMILES beside them.

MOLECULE	RESULT_UNIT	Population Healthy Nuclei (%)
C[C@H](NC(=O)CNC(=O)c1cccc(Cl)c1)c1ccccc1	%	81
COCCCN1CCC(NC(=O)c2cc(Cl)c(N)c3c2OCC3)CC1 [PRUCALOPRIDE]	%	81
C[C@@H]1CC(=O)Nc2cccc(-c3ccc4c(c3)c(-c3cnn(C)c3)nn4C)c2N1	%	81
COc1cc2nc(N3CCN(C(=O)COc4c(OC)cccc4C(C)C)CC3)nc(N)c2cc1OC.Cl.Cl	%	78
CN(C)C/C=C/C(=O)Nc1ccc(C(=O)N2CCCC(Nc3ncc(Cl)c(-c4c[nH]c5ccccc45)n3)C2)cc1 (configuration not stated)	%	65
Cc1ccc(OCC(O)C(C)NC(C)C)c2c1CCC2.Cl (configuration not stated)	%	81
Cc1cc(=O)n(C)c2cc(N3C(=O)CC[C@H](NS(=O)(=O)CC(C)C)[C@H]3c3ccc(Cl)cc3)ccc12	%	79
CCC(=O)OCC(=O)[C@@]1(OC(=O)CC)[C@@H](C)C[C@H]2[C@@H]3CCC4=CC(=O)C=C[C@]4(C)[C@@]3(Cl)[C@@H](O)C[C@@]21C [BECLOMETHASONE DIPROPIONATE]	%	79
COC(c1ccccc1)(c1ccccc1)[C@H](Oc1nc(C)cc(C)n1)C(=O)O	%	80
Cc1cc(-c2ccc3c(c2)CC[C@H]3N2CC3(CCN(C(=O)Cc4cn5cc(C)sc5n4)CC3)C2)ncn1	%	80
CN1CCN2c3ccccc3Cc3ccccc3C2C1.Cl (configuration not stated) [MIANSERIN HYDROCHLORIDE]	%	78
COc1cc(Nc2ncc3c(n2)-c2ccc(Cl)cc2C(c2c(F)cccc2OC)=NC3)ccc1C(=O)O	%	77
Nc1nc(-c2ccco2)c2cnn(Cc3ccccc3F)c2n1	%	78
Cc1c(Cc2ccc3ccccc3n2)c2cc(F)ccc2n1CC(=O)O	%	76
COc1ccc2c(c1OCc1ccccc1)C[C@@H](C(=O)O)N(C(=O)C(c1ccccc1)c1ccccc1)C2	%	79
CN1C[C@H](C(=O)N[C@]2(C)O[C@@]3(O)[C@@H]4CCCN4C(=O)[C@H](Cc4ccccc4)N3C2=O)C[C@@H]2c3cccc4[nH]cc(c34)C[C@H]21.CS(=O)(=O)O [DIHYDROERGOTAMINE MESYLATE]	%	82
CC(F)(F)CN1CCOc2c(nn(-c3ccccc3Cl)c2-c2ccc(Cl)cc2)C1=O	%	79
Cc1cc(O)c(-c2ccc([C@@H](C)CN(C)C)cc2)c2c1[nH]c(=O)c1sccc12	%	67
CC(C)C[C@H](CO)Nc1nc(S[C@@H](C)c2ccccc2)nc2nc(N)sc12	%	79
N[C@](CC1c2ccccc2Oc2ccccc21)(C(=O)O)[C@H]1C[C@@H]1C(=O)O	%	81
CC(C)C[C@@H]1NC(=O)[C@@H](C(C)C)NC(=O)[C@@H]2CCCN2C(=O)[C@@H](CC(=O)O)NC(=O)[C@@H](Cc2c[nH]c3ccccc23)NC1=O [BQ-123] (cyclo(L[dW][dD]P[dV]))	%	81
Cc1sc2c(c1C)C(c1ccc(Cl)cc1)=N[C@H](CC(=O)OC(C)(C)C)c1nnc(C)n1-2	%	79
COc1cc(C(=O)N2CC[C@@H](O)[C@@H](N)C2)cc2nc(-c3cc4ccccc4n3CC3CC3)n(C)c12.Cl	%	80
COc1cc(OC2CCN(C(C)=O)CC2)ccc1C(=O)N1CCC(N2C(=O)OCc3ccccc32)CC1	%	80
O=C(Nc1cc(-c2ccccc2)nn1-c1ccccc1F)c1ccc([N+](=O)[O-])cc1	%	74
S=C(NCCCc1c[nH]cn1)NCCCN(Cc1ccc(Cl)c(Cl)c1)c1ccc(Br)cn1	%	73
Cc1cc(NC(=O)NCCN2CCC(O)(Cc3ccccc3)CC2)c2ccccc2n1	%	81
C=CCN1C[C@H](C(=O)N(CCCN(C)C)C(=O)NCC)C[C@@H]2c3cccc4[nH]cc(c34)C[C@H]21	%	81
Nc1nc(CC(=O)Nc2ccc(CCNC[C@H](O)c3ccccc3)cc2)cs1	%	76
O=c1ccc2ccc(OCCCCN3CCN(c4cccc5sccc45)CC3)cc2[nH]1	%	79
CCCCC[C@H](O)/C=C/[C@H]1[C@H](O)CC(=O)[C@@H]1CCCCCCC(=O)O	%	77
CC(C)(C)c1ccc(CSc2cnn(C(C)(C)C)c(=O)c2Cl)cc1	%	84
